FYI, the data here is from patent EP0761658A1.

Test system: rats fed on a high-cholesterol diet
Test: Serum cholesterol lowering activity in rats fed on a high-cholesterol diet
Type: in vivo, Male Sprague-Dawley rats
Conditions: Rattus norvegicus, 96 h; total serum cholesterol; 30 mg per kg of body weight per day for 4 days, suspended in 0.5% carboxymethyl cellulose; blood 24 hours after last administration; read-out: Reduction rate (%)
// values below are reported inhibition in vivo at 30 mg/kg
value_kind: inhibition in vivo at 30 mg/kg (%)

>  <smiles_structure>
CCc1cccc(CC)c1NC(=O)Nc1nc(-c2ccccc2)sc1-c1ccccc1C

>  <value_unit>
%

>  <data_value>
87.8

$$$$
>  <smiles_structure>
Cc1ccccc1-c1nc(-c2ccccc2)sc1NC(=O)Nc1c(C(C)C)cccc1C(C)C

>  <value_unit>
%

>  <data_value>
85.7

$$$$
>  <smiles_structure>
Cc1ccccc1-c1oc(-c2ccccc2)nc1NC(=O)Nc1c(C(C)C)cccc1C(C)C

>  <value_unit>
%

>  <data_value>
59.8

$$$$
>  <smiles_structure>
Cc1nc(NC(=O)Nc2c(C(C)C)cccc2C(C)C)c(-c2ccccc2C)s1

>  <value_unit>
%

>  <data_value>
46.1

$$$$
